# damage to plant (100=total damage; 0=no damage) ZEAMX listing for each entry below
- System: corn (Zea mays, ZEAMX)
- Procedure Details: Test A pre-emergence, corn
- Assay type: in vivo
- Setup Conditions: Pre-Emergence at 250 g/ha; after 13 d
Quantity Measured: damage to plant (100=total damage; 0=no damage) ZEAMX

>>> df
                                   compound  meas_value
0  CN1CC(c2nn(C)c(Cl)c2Br)C(C(=O)Nc2ccc(F)c(F)c2F)C1=O (racemic)          10
1  CN1CC(c2cc(C(F)(F)F)n(C)n2)C(C(=O)Nc2cccc(F)c2F)C1=O (centres unmarked)          20
2  CN1CC(c2cc(C(F)(F)F)n(C)n2)C(C(=O)Nc2ccc(F)nc2F)C1=O (racemic)          40
3  CN1CC(c2cnn(C)c2C(F)(F)F)C(C(=O)Nc2cccc(F)c2F)C1=O (racemic)          20
4  CN1CC(c2nn(C)c(Cl)c2Br)C(C(=O)Nc2cccc(F)c2F)C1=O (racemic)           0
